Measured values drawn from paper doi:10.1101/567099 for this set.

Target: the molecule itself
Assay: negative-stain electron microscopy
measured.endpoint: binding result

TorsinA (human, residues 51-332) after cleavage of the MBP tag with 3C protease (domain or fragment) GQKRSLSREALQKDLDDNLFGQHLAKKIILNAVFGFINNPKPKKPLTLSLHGWTGTGKNFVSKIIAENIYEGGLNSDYVHLFVATLHFPHASNITLYKDQLQLWIRGNVSACARSIFIFDEMDKMHAGLIDAIKPFLDYYDLVDGVSYQKAMFIFLSNAGAERITDVALDFWRSGKQREDIKLKDIEHALSVSVFNNKNSGFWHSSLIDRNLIDYFVPFLPLEYKHLKMCIRVEMQSRGYEIDEDIVSRVAEEMTFFPKEERVFSDKGCKTVFTKLDYYYDD | binds
